TARGET ENTITY: polymerase of hepatitis B virus (Hepatitis B virus genotype D subtype ayw)
Construct: the Dane particles were isolated from HBV-infected human blood; from tissue; host or cells: Dane particles (HBV virions) isolated from HBV-infected human blood
Sequence (P03156 whole entry): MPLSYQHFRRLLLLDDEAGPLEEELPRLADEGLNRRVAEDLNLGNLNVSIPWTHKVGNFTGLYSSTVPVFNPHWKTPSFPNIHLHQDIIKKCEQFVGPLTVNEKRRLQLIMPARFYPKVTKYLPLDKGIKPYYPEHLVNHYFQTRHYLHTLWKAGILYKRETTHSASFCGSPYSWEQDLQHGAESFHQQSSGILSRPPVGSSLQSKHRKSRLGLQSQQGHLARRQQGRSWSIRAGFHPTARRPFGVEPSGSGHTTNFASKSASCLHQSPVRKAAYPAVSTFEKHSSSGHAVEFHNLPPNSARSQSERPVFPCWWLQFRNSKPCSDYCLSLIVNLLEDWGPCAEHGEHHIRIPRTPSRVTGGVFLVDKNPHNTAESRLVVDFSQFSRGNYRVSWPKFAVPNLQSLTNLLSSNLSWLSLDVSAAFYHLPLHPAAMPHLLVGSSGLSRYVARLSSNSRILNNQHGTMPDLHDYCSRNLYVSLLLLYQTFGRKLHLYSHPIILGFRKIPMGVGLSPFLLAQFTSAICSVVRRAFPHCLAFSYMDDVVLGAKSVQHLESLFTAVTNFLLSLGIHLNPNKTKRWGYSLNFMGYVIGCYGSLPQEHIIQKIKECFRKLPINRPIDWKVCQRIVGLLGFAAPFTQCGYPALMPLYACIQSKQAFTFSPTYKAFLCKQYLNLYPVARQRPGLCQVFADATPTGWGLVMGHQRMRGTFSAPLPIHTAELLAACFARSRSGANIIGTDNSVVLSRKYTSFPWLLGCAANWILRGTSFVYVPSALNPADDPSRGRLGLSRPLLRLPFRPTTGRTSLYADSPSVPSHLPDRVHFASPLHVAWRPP
RUN DESCRIPTION: in vitro endogenous DNA polymerase assay (Dane particles, radioactive nucleotide incorporation into viral DNA)
Format: biochemical
CONDITION SUMMARY: 0.01 μg/ml; 37° C., 2 hours; Dane particle DNA polymerase
Rule: inhibition at 0.01 µg/mL under 10% gives No, otherwise Yes.

COMPOUND	LABEL CLASS
CO[C@H]1/C=C/O[C@@]2(C)Oc3c(C)c(O)c4c(O)c(c(C=NN(C)C)c(OS(=O)(=O)CCCc5ccccc5)c4c3C2=O)NC(=O)/C(C)=C\C=C\[C@H](C)[C@H](O)[C@@H](C)[C@@H](O)[C@@H](C)[C@H](OC(C)=O)[C@@H]1C [(e)]	Yes
CO[C@H]1/C=C/O[C@@]2(C)Oc3c(C)c(O)c4c(c3C2=O)C(=N)C(N)=C(NC(=O)/C(C)=C\C=C\[C@H](C)[C@H](O)[C@@H](C)[C@@H](O)[C@@H](C)[C@H](OC(C)=O)[C@@H]1C)C4=O	Yes
COC1C=COC2(C)Oc3c(C)c(O)c4c(O)c(c5c(c4c3C2=O)N(S(C)(=O)=O)C(C)N5)NC(=O)C(C)=CC=CC(C)C(O)C(C)C(O)C(C)C(OC(C)=O)C1C (stereo not drawn)	Yes

Switching to the query record.
Prompt: Record `CCCCS(=O)(=O)Oc1c(C=NN2CCCCC2)c2c(O)c3c(O)c(C)c4c(c13)C(=O)[C@@](C)(O/C=C/[C@H](OC)[C@@H](C)[C@@H](OC(C)=O)[C@H](C)[C@H](O)[C@H](C)[C@@H](O)[C@@H](C)/C=C/C=C(/C)C(=O)N2)O4` ; criterion: inhibition at 0.01 µg/mL no lower than 10%. Met?
Completion: No
